- Tested on: Mycobacterium tuberculosis Erdman (autoluminescent)
- METHOD_NOTES: AUC25, normalised area under dose response up to IC25 (three-drug combination) (fraction (0-1)); higher = more potent at low dose
- REPORTED_CONDITIONS: in vitro model: dormancy (butyrate + nitrate, low O2); time point: terminal (~4-5 doublings, model-specific)
RECORDED_METRIC: AUC25
Answer with the value's number alone.

Would you kindly share the measured AUC25 for CC[C@@H](CO)NCCN[C@@H](CC)CO [ethambutol] + NC(=O)c1cnccn1 [pyrazinamide] + CO[C@H]1/C=C/O[C@@]2(C)Oc3c(C)c(O)c4c(O)c(c(/C=N/N5CCN(C6CCCC6)CC5)c(O)c4c3C2=O)NC(=O)/C(C)=C\C=C\[C@H](C)[C@H](O)[C@@H](C)[C@@H](O)[C@@H](C)[C@H](OC(C)=O)[C@@H]1C [rifapentine] ?
0.116

Alright, here's another compound for you.
Look up AUC25 for this compound: COc1c(N2C[C@@H]3CCCN[C@@H]3C2)c(F)cc2c(=O)c(C(=O)O)cn(C3CC3)c12 [moxifloxacin] + O=[N+]([O-])c1cn2c(n1)OC[C@@H](OCc1ccc(OC(F)(F)F)cc1)C2 [pretomanid] + CO[C@H]1/C=C/O[C@@]2(C)Oc3c(C)c(O)c4c(O)c(c(/C=N/N5CCN(C6CCCC6)CC5)c(O)c4c3C2=O)NC(=O)/C(C)=C\C=C\[C@H](C)[C@H](O)[C@@H](C)[C@@H](O)[C@@H](C)[C@H](OC(C)=O)[C@@H]1C [rifapentine]
0.0483

----------
- Tested on: Mycobacterium tuberculosis Erdman (autoluminescent)
- METHOD_NOTES: AUC25, normalised area under dose response up to IC25 (fraction (0-1)); higher = more potent at low dose
- REPORTED_CONDITIONS: in vitro model: cholesterol-high 0.2 mM; time point: terminal (~4-5 doublings, model-specific)
Give 1 when the value for AUC25 is at least 0.1. Give -1 when it is less.

Look over these answered cases.
Could you tell me if the measured AUC25 of COc1nc2ccc(Br)cc2cc1[C@@H](c1ccccc1)[C@@](O)(CCN(C)C)c1cccc2ccccc12 [bedaquiline] + O=[N+]([O-])c1cn2c(n1)OC[C@@H](OCc1ccc(OC(F)(F)F)cc1)C2 [pretomanid] reaches 0.1 or more?
-1

Next compound: NNC(=O)c1ccncc1 [isoniazid] + CC(=O)NC[C@H]1CN(c2ccc(N3CCOCC3)c(F)c2)C(=O)O1 [linezolid]
1

// query: CC[C@@H](CO)NCCN[C@@H](CC)CO [ethambutol] + CO[C@H]1/C=C/O[C@@]2(C)Oc3c(C)c(O)c4c(O)c(c(/C=N/N5CCN(C)CC5)c(O)c4c3C2=O)NC(=O)/C(C)=C\C=C\[C@H](C)[C@H](O)[C@@H](C)[C@@H](O)[C@@H](C)[C@H](OC(C)=O)[C@@H]1C [rifampicin]
-1

Follow-up item: CC[C@@H](CO)NCCN[C@@H](CC)CO [ethambutol] + NNC(=O)c1ccncc1 [isoniazid]
-1

Attention now shifts to the item below.
For this compound, is measured AUC25 0.1 or higher? CC(C)/N=c1\cc2n(-c3ccc(Cl)cc3)c3ccccc3nc-2cc1Nc1ccc(Cl)cc1 [clofazimine] + NNC(=O)c1ccncc1 [isoniazid]
1
